Assay: Rat IV and PO PK studies
Type: in vivo, male Sprague-Dawley rats
Conditions: male, Sprague-Dawley, plasma, 3 mg/kg, oral, read-out: Rat po % F
Description: 5C. Experimental Protocol for Rat IV and PO PK Studies […] […] Analyses of plasma and dose preparations were performed using LC/MS/MS. Plasma concentration-time profiles of the tested compound in Sprague-Dawley rats at scheduled (nominal) sampling times were analyzed by noncompartmental pharmacokinetic methods using PK function within Watson LIMS software, Version 7.4.2 (Thermo Scientific Inc, Waltham, Mass.). AUC values were calculated using the linear trapezoidal rule.
bioavailability for assorted compounds
Experimental readout: bioavailability (%)

# Smiles notation, Measurement
measured = [
    ("C[C@@H]1CN(c2nc(-n3ccc(OCC4(C(F)(F)F)CC4)n3)ccc2C(=O)NS(=O)(=O)c2ccccc2)C(C)(C)C1", 58),
    ("C[C@@H]1CN(c2nc(-n3ccc(OCC4(C(F)(F)F)CC4)n3)ccc2C(=O)NS(=O)(=O)c2ccc(O)cc2)C(C)(C)C1", 31),
    ("C[C@@H]1CN(c2nc(-n3ccc(OCC4(C(F)(F)F)CC4)n3)ccc2C(=O)NS(=O)(=O)c2ccc(C#N)cc2)C(C)(C)C1", 100),
    ("C[C@@H]1CN(c2nc(-n3ccc(OCC4C(C)(C)C4(C)C)n3)ccc2C(=O)NS(=O)(=O)c2cccc(F)c2)C(C)(C)C1", 12),
]
